assay: ATG_EGR_CIS: Attagene CIS-FACTORIAL HepG2 Assay for human Early Growth Response 1 (EGR1) (AID 2282938)
condition: HepG2 Attagene CIS-FACTORIAL EGR reporter mRNA; actives raise or lower the signal
Active and inactive are the calls of the source. Rule for the calls: active = hit-call score of the fitted dose curve at least 0.9, where 1 is the maximum; inactive = score below 0.9.
Result category, one only: true (1) = active, false (0) = inactive

Query string: What did the test return for OCCCCCO ?
Result string: false (0)

Query string: // param item: Cc1ccc(C(=O)O)o1 ; yields the recorded call
Result string: false (0)

Query string: Answer briefly: the call reported for CCC(=O)/C=C/C1C(C)=CCCC1(C)C (centres undefined) in this assay.
Result string: false (0)

Query string: Status in this test for CC(C)c1ccc(C(C)C)cc1 ?
Result string: false (0)

###

assay: BSK_4H_Eotaxin3: BioMAP Diversity Plus: 4H Assay for Eotaxin 3 Biomarker Activity (AID 2283000)
condition: primary human endothelial cells (HUVEC); actives raise or lower the signal
Experimental: BSK_4H is a cell-based, multiplexed-readout assay that uses umbilical vein endothelium, a human vascular primary cell, with measurements taken at 24 hours after chemical dosing in a 96-well plate.BSK_4H_Eotaxin3 is an assay component measured in the BSK_4H assay. It measures Eotaxin-3 antibody related to regulation of gene expression using ELISA technology.Data from the assay component BSK_4H_Eotaxin3 was analyzed into 1 assay endpoint. […]
Active and inactive are the calls of the source. How the source made its calls: active means hit-call score of the fitted dose curve at least 0.9, where 1 is the maximum; inactive means score below 0.9.
Assign a class; possible classes are active, inactive

# example entries with known answers
* COC(=O)c1ccc(C)cc1 | inactive
* CC(=O)[C@H]1CC[C@H]2[C@@H]3CC=C4C[C@@H](O)CC[C@]4(C)[C@H]3CC[C@]12C | inactive
* c1ccc2c(c1)c1cccc3ccc4cccc2c4c31 | inactive

Query string: Which result was noted for this molecule in the test: Nc1cc([N+](=O)[O-])ccc1Cl
Result string: inactive

Query string: What did the test return for CCCCC(CC)COC(=O)/C=C\C(=O)OCC(CC)CCCC (stereo unspecified) ?
Result string: inactive

Query string: Call for entry CCn1c2ccccc2c2cc(N)ccc21 :
Result string: inactive

Query string: Which outcome was assigned to O=[N+]([O-])c1cc(C(F)(F)F)ccc1Cl in this test?
Result string: inactive

Query string: Fill in: this test's call for CC(=O)OCCC(C)CC(C)(C)C (stereo unspecified) is ___
Result string: inactive

Query string: Short answer needed: outcome of this test for O=C(O)c1cn(C2CC2)c2cc(N3CCNCC3)c(F)cc2c1=O ?
Result string: inactive

Query string: What was the test verdict on C[C@H]1C[C@@H]2[C@H]([C@@H](O)C[C@@]3(C)[C@H]2CC[C@]3(O)C(=O)CO)[C@@]2(C)C=CC(=O)C=C12 ?
Result string: inactive

Query string: What is the recorded call for this molecule in the test? O=C(O)C[C@H](O)C[C@H](O)/C=C/c1c(C2CC2)nc2ccccc2c1-c1ccc(F)cc1
Result string: active

###

Read-out: Collagen IV, COL4A1 (gene 1282)
assay: BSK_MyoF_CollagenIV: BioMAP Diversity Plus: MyoF Assay for Collagen IV Biomarker Activity (AID 2284247)
condition: primary human lung fibroblasts
The source made the active and inactive calls. Rule for the calls: active = hit-call score of the fitted dose curve at least 0.9, where 1 is the maximum; inactive = score below 0.9.
// one of label 1 for active, label 0 for inactive, no free text

Query string: Recorded test outcome, item c1ccc2sc(SN(C3CCCCC3)C3CCCCC3)nc2c1
Result string: label 0

Query string: Tell me the assay call for CC(=O)O[C@]1(C(C)=O)CC[C@H]2[C@@H]3C[C@H](C)C4=CC(=O)CC[C@]4(C)[C@H]3CC[C@@]21C please.
Result string: label 0

Query string: For this molecule, state the assay outcome: CCCCCCCCCC=O
Result string: label 1

###

assay: ATG_AP_1_CIS: Attagene CIS-FACTORIAL HepG2 Assay for human Activator Protein 1 (AP-1) (AID 2282931)
condition: HepG2 Attagene cis-factorial AP-1 reporter mRNA; actives raise or lower the signal
Calls of active or inactive are those of the source. Rule for the calls: active = hit-call score of the fitted dose curve at least 0.9, where 1 is the maximum; inactive = score below 0.9.
experimental endpoint: AC50

• CC(C)C(C)(C)C(C)(C)C(C)(C)S = inactive
• CC1(CO)CN(c2ccccc2)NC1=O (centres undefined) = inactive
• CC1(C)[C@H]2CC[C@]1(C)[C@H](O)C2 = inactive
• CCCCCOC(=O)CCC = inactive
• CC(C)C1CCC(O)CC1 (centres undefined) = inactive
• COC(=O)C1=C(C)NC(C)=C(C(=O)OCCN(C)Cc2ccccc2)C1c1cccc([N+](=O)[O-])c1 (centres undefined) = inactive
• C=C(C)C(=O)O[C@H]1C[C@@H]2CC[C@@]1(C)C2(C)C = 100 µM (active)
• C=CC(=O)NCOCC(C)C = inactive
• CC(C)c1cccc(O)c1 = inactive
• CC(=O)OCc1ccc2c(c1)OCO2 = inactive

Quick one: give me AC50 for each item below, same order please.
1. CC(c1cc2ccccc2s1)N(O)C(N)=O (centres undefined)
2. O=C1CCCCCCCCCCCCCCO1
3. C=C(C)[C@@H]1CC[C@@H](C)C[C@@H]1O
4. CC(=O)[O][Al][O]C(C)=O

Result string:
["inactive", "46.2 µM (active)", "inactive", "inactive"]

###

assay: ATG_PXRE_CIS: Attagene CIS-FACTORIAL HepG2 Assay for human Pregnane X Receptor Element (PXRE) (AID 2282957)
condition: HepG2 Attagene CIS-FACTORIAL PXRE reporter, mRNA; actives raise or lower the signal
The source made the active and inactive calls. The calls were made as follows: active = hit-call score of the fitted dose curve at least 0.9, where 1 is the maximum; inactive = score below 0.9.
experimental endpoint: AC50

Please review the entries below; each comes with its answer.
- OC1OC[C@@H](O)[C@H](O)[C@H]1O (stereo partly specified): inactive
- NCCCCCCN: inactive
- Cc1cc(C2(c3cc(C)c(O)cc3C)OS(=O)(=O)c3ccccc32)c(C)cc1O: 24.2 µM (active)
- CCC/C=C/C=O: 11.2 µM (active)
- CC1(C)C(=O)N(Br)C(=O)N1Cl: 67.5 µM (active)
- CC(CC(C)(C)C)CC(C)(C)CC(C)(C)C (stereo unspecified): inactive

Record AC50 per entry; entries follow.
1. CCCCCCCCCCCCN(CCCCCCCCCCCC)CCCCCCCCCCCC
2. Clc1cccc(Cl)n1
3. Cc1cccc(Nc2ccccc2C(=O)O)c1C
4. C=C(C)C(=O)O
5. Cc1c(Cl)c(=O)oc2cc(O)ccc12
6. C=C[Si](OCC)(OCC)OCC
7. C=CC(C)(O)CCC=C(C)CCC=C(C)C (stereo unspecified)

Result string:
1. inactive
2. inactive
3. 14.1 µM (active)
4. inactive
5. 70.3 µM (active)
6. 5.48 µM (active)
7. 9.06 µM (active)

Go through the items and report each one's AC50.
1. CCCCCCCCC=O
2. O=C(O)c1cn(C2CC2)c2cc(N3CCNCC3)c(F)cc2c1=O
3. C=COCCOCCOCCOC=C
4. CC1(C)[C@H]2CC[C@]1(C)[C@H](O)C2
5. CC(C)Oc1ccccc1O

Result string:
["inactive", "inactive", "inactive", "68.7 µM (active)", "39.4 µM (active)"]

###

Read-out: Vascular cell adhesion molecule 1 (VCAM1), VCAM1 (gene 7412)
assay: BSK_LPS_VCAM1: BioMAP Diversity Plus: LPS Assay for Vascular cell adhesion molecule 1 (VCAM1) Biomarker Activity (AID 2283086)
condition: primary human HUVEC with PBMC; actives raise or lower the signal
Description: BSK_LPS is a cell-based, multiplexed-readout assay that uses umbilical vein endothelium and peripheral blood mononuclear cells, a human vascular primary cell co-culture, with measurements taken at 24 hours after chemical dosing in a 96-well plate.BSK_LPS_VCAM1 is an assay component measured in the BSK_LPS assay. It measures VCAM-1 antibody related to regulation of gene expression using ELISA technology.Data from the assay component BSK_LPS_VCAM1 was analyzed into 1 assay endpoint. […]
Active and inactive are the calls of the source. The calls were made as follows: active = hit-call score of the fitted dose curve at least 0.9, where 1 is the maximum; inactive = score below 0.9.
The reply should be one of these categories: True (active), False (inactive)

- Cc1ccc(O)c(C(C)(C)C)c1: True
- CC(=O)O[C@]1(C(C)=O)CC[C@H]2[C@@H]3C[C@H](C)C4=CC(=O)CC[C@]4(C)[C@H]3CC[C@@]21C: False
- NCCNCCN: False
- CCCCC(CC)COC(=O)/C=C\C(=O)OCC(CC)CCCC (stereo unspecified): True
- CC(=O)OCCC(C)CC(C)(C)C (stereo unspecified): False

Moving on to another molecule below.
Query string: Recorded test call requested for CC(C)(COC(=O)c1ccccc1)COC(=O)c1ccccc1
Result string: True

###

assay: ATG_PXRE_CIS: Attagene CIS-FACTORIAL HepG2 Assay for human Pregnane X Receptor Element (PXRE) (AID 2282957)
condition: HepG2 Attagene CIS-FACTORIAL PXRE reporter, mRNA; actives raise or lower the signal
The source made the active and inactive calls. The calls were made as follows: active = hit-call score of the fitted dose curve at least 0.9, where 1 is the maximum; inactive = score below 0.9.
The reply should name one outcome from TRUE (active), FALSE (inactive)

* CC1CCC(C(C)CS)CC1S (centres undefined) | TRUE
* CC(C)c1cccc(O)c1 | TRUE
* CCCCCCCCCOC(C)=O | TRUE
* NCCOCCO | FALSE
* OCCCCCO | TRUE

Query string: Assay outcome for CC1CCC2CC1C2(C)C (centres undefined) : what was it?
Result string: FALSE

Query string: Hi team, can someone confirm the assay call for NCCCN1CCOCC1 ?
Result string: FALSE

Query string: What is the recorded call for this compound in the test? NC(N)=NC(=O)c1nc(Cl)c(N)nc1N
Result string: FALSE

Query string: What outcome does the record of this test show for CC1=CCC(O)(C(C)C)CC1 (centres undefined) ?
Result string: TRUE
